Quick list: cAMP Rel EC50 (1% HSA) per entry.
target: hGLP-1R (Homo sapiens, UniProt P43220); assay: cell-based or functional assay
Sequence (P43220 24-463): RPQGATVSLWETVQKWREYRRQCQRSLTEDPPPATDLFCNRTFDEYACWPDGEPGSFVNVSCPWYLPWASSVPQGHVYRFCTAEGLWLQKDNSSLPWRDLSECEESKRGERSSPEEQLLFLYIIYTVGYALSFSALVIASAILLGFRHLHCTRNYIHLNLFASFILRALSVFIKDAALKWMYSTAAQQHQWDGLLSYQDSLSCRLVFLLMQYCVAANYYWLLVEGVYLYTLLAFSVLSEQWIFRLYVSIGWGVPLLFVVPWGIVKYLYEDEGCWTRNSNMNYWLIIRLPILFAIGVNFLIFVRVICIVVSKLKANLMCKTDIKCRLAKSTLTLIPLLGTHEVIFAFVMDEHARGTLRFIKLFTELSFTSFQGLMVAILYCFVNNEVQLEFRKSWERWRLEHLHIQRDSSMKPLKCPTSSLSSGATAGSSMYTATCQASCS
Starred links: 1 amine or outer side, 2 acyl side, 3 side chain; linkers in the order of their positions; H or OH if unused. Non-standard residues stand in square brackets, D forms with d. Groups on a side chain read outwards from the residue. No end group written: not given here. *: point of attachment. C20 diacid = O=C(O)CCCCCCCCCCCCCCCCCCC(=O)*; γGlu = O=C(O)[C@H](CCC(=O)[*:2])N[*:1]; αMeL = CC(C)C[C@](C)(N)C(=O)O; AEEA = NCCOCCOCC(=O)O; Aib = CC(C)(N)C(=O)O

Binder	cAMP Rel EC50 (1% HSA) [nM]
YXQGTXTSDXXIXLDXKAAXEFIEXLIEGGPSSGAPPPSGEE (synthetic construct; SITE 2: note = 2-Aminoisobutyric Acid; SITE 6: note = alpha-methyl-2-fluoro-L-phenylalanine; SITE 10: note = 3-(4-Pyridyl)-L-alanine; SITE 11: note = alpha-methyl-L-serine; SITE 13: note = alpha-methyl-leucine; SITE 16: note = L-ornithine; SITE 17: note = Lysine is chemically mo) [Example 703]	27.1
Y[Aib]QGTFTSDYSK[αMeL]LDKK([AEEA-γGlu-C20 diacid])AQQAFIQWLIEGGPSSGEPPPSEG-NH2 [Example 314]	100
Y[Aib]QGTFTSDYSI[αMeL]LDKQAAKQFVEWLLA[Aib]GPSSGEPPPSEG (not fully specified (residue 20)) [Example 329]	204
